Origin of measurements: PubChem BioAssay (NCI)

Would you kindly list growth for each of these compounds?
Test system: OVCAR-3 ovarian
protocol_text: NCI-60 one-dose screen, 48 h (100 = growth as untreated, 0 = no growth, -100 = all killed)
reported_conditions: 10 µM unless noted
The panel holds about 83,000 compounds, 20% with a hit somewhere; the sample as a whole holds those more often.
Entry rule: numbers only, all in %.

Fill in: growth of O=C(Oc1ccc[nH]c1=O)c1cc([N+](=O)[O-])cc([N+](=O)[O-])c1 is ___
113

Same read-out for Fc1ccc(Nc2nc3nonc3nc2Nc2ccc(F)cc2)cc1 ?
1.97

Same read-out for Cc1ccc(S(=O)(=O)NN/C(N)=N\S(=O)(=O)c2cc(C)c(Cl)cc2SCc2ccccc2)cc1 ?
121

Same read-out for NS(=O)(=O)Oc1ccc(NC(=O)C23CC4CC(CC(C4)C2)C3)cc1Cl ?
103

Same read-out for N#Cc1c(Oc2ccc([N+](=O)[O-])cc2)nc2sc3cc(Cl)ccc3n2c1=N ?
107

Same read-out for CCCCCCNC(=O)c1cc(NCc2cc(O)ccc2O)ccc1O ?
27.4

Same read-out for COc1ccc(-n2ncn(CCCCCCn3cnn(-c4ccc(OC)cc4)c3=O)c2=O)cc1 ?
98.4

Same read-out for CCCCCCCCc1cc[n+](CC(=O)c2ccc(Br)cc2)cc1 ?
-44.1

Same read-out for CCCCCCCCn1cc(C2=C(c3coc4ccc(OC)cc34)C(=O)NC2=O)c2ccccc21 ?
107

Same read-out for COc1cc(C2CC(c3ccc(Nc4nc(Nc5ccc(F)cc5)nc(Nc5ccc(Cl)cc5)n4)cc3)=NN2C(C)=O)cc(OC)c1OC (stereo not given) ?
82.7

----------
Tested on: OVCAR-3 ovarian
protocol_text: NCI-60 one-dose screen, 48 h
reported_conditions: 10 µM unless noted
The panel holds about 83,000 compounds, 20% with a hit somewhere; the sample as a whole holds those more often. Activity calls are given as the source filed them. The calls were made as follows: active = growth percent below 10; inactive = the rest.
Outcomes you can answer with include only these: yes (1) = active, no (0) = inactive

Just curious, what result did CC(=[N-])N1CCC[C@@H](Nc2c3ccccc3nc3ccccc23)C1.[Cl][Pt].[NH-]CCC[NH-] get here?
yes (1)

Same read-out for COc1cc2c(cc1OC)-c1ccc3cc4c(cc3c1N(CCCN1CCCCC1)C2)OCO4 ?
no (0)

Same read-out for Cn1cc(-c2ccc3ncc(-c4ccc(CC(=O)Nc5cc(C(C)(C)C)nn5C)cc4)cc3c2)cn1 ?
yes (1)

Same read-out for Clc1ccc(-c2nnc(Cn3ccnc3)o2)cc1 ?
no (0)

Same read-out for N#C/C(=C\c1ccc(Br)cc1)n1nnc2ccccc21 ?
yes (1)

Same read-out for C=C(Cl)COC(=O)C(C)(C)O ?
no (0)

Same read-out for CC(C)N(CCOC(=O)Nc1ccccc1Cl)C(C)C ?
no (0)

Same read-out for CC(=O)OCCc1ccccc1 ?
no (0)

Same read-out for COc1ccc(OC)c(/C=C2\COc3ccc(O)c(O)c3C2=O)c1 ?
yes (1)

Same read-out for COc1cc(/C=C/C(=O)c2ccc(Nc3nc(Nc4ccccc4)nc(Nc4ccc(Cl)cc4)n3)cc2)cc(OC)c1OC ?
no (0)

Same read-out for CNC(=O)c1c(NC(=O)c2ccc(C(C)(C)C)cc2)sc2c1CCC(=O)C2 ?
yes (1)

----------
Test system: A549/ATCC NSCLC
protocol_text: NCI-60 one-dose screen, 48 h (100 = growth as untreated, 0 = no growth, -100 = all killed)
reported_conditions: 10 µM unless noted
This is part of a sample that, as a whole, favours compounds with a hit. Of some 83,000 tested, about 20% had one in any assay.
Note to self: use 1 only for growth readings below 50%; a reading exactly at 50% still gets 0.

Check if growth falls below 50% for O=C1NN(C(=O)c2ccc(O)cc2)C(c2ccccc2)=N/C1=C\c1cn(-c2ccccc2)nc1-c1ccccc1 .
0

Same read-out for N[C@H]1CCC[C@@H]1NCCCCN1C(=O)c2cccc3cccc(c23)C1=O ?
0

Same read-out for O=C(/C=C/C12c3ccccc3C(c3ccccc31)C1C(=O)N(c3ccccc3)C(=O)C12)c1ccc(Cl)cc1 (centres undefined) ?
1

Same read-out for O[C@H]1CO[C@H]2[C@@H]1OC[C@@H]2Oc1ccc(Nc2nc(Nc3ccc(F)c(Cl)c3)ncc2F)cc1Cl ?
0

Same read-out for CCNCCNc1cc(C2CCCC2)c(C#N)c2nc3ccccc3n12 ?
1

Same read-out for CC(=O)NCC(=O)Nc1ccc(-c2nnc3ccccn23)nc1.CC(=O)NCC(=O)Nc1ccc(-c2nnc3ccccn23)nc1.[Pt+2] ?
0

Same read-out for COc1ccc(N(C)c2nc(Cl)nc3cnn(C)c23)cc1 ?
1

Same read-out for Cc1nc2ccccc2c(/C=C/c2ccc(Cl)cc2)c1C(=O)/C=C/c1ccc(Cl)cc1 ?
0

Same read-out for COc1ccc(C(=O)/C=C/C23c4ccccc4C(c4ccccc42)C2C(=O)NC(=O)C23)cc1 (centres undefined) ?
0

----------
System: CCRF-CEM leukemia
protocol_text: NCI-60 one-dose screen, 48 h
reported_conditions: 10 µM unless noted
This is part of a sample that, as a whole, favours compounds with a hit. Of some 83,000 tested, about 20% had one in any assay. Activity calls are given as the source filed them. How the source made its calls: active means growth percent below 10; inactive means the rest.
Outcomes you can answer with include only these: active, inactive

Just curious, what result did Cc1ccc(O)c(C(=O)c2ccccc2Cl)c1 get here?
inactive

Same read-out for CCOc1cc(N)ccc1C(=O)NCCCN(CC)CC ?
active

Same read-out for CCCCOc1nc2ccc(Cl)cc2cc1/C=C/C(=O)/C=C1/CC(c2cc3cc(Cl)ccc3nc2OCCCC)Nc2ccccc2N1 (stereo not given) ?
inactive

Same read-out for Cl.Fc1c[c-]c(-c2ccccn2)c(F)c1.[Pt].c1ccc(P(c2ccccc2)C([PH+](c2ccccc2)c2ccccc2)[PH+](c2ccccc2)c2ccccc2)cc1 ?
inactive

Same read-out for COc1ccc(N=c2nc3sc4cc(Cl)ccc4n3c(N)c2C#N)cc1 ?
inactive

Same read-out for Cc1c(Cl)cccc1NS(=O)(=O)c1ccccc1 ?
inactive

Same read-out for NC(=S)N/N=C/C(=O)O ?
inactive

Same read-out for O=C1CCC(N2C(=O)c3cccc(NCCCC4CCN(CCNC(=O)c5cc6c(o5)C(=O)c5ccccc5C6=O)CC4)c3C2=O)C(=O)N1 (stereo not given) ?
inactive

Same read-out for O=C(NCCOCCOCCOCCNC(=O)c1cc2c(o1)C(=O)c1ccccc1C2=O)NC12CC3CC(CC(C3)C1)C2 ?
inactive

Same read-out for Cl.Fc1c[c-]c(-c2ccccn2)c(F)c1.[Pt].c1ccc([PH+](c2ccccc2)c2ccccc2[PH+](c2ccccc2)c2ccccc2)cc1 ?
active

Same read-out for COc1ccc(-c2nc3sccn3c2/C=C/C(=O)c2c[nH]c3ccccc23)cc1 ?
inactive

Same read-out for CCOC(=O)c1cnn2c(-c3ccc(Cl)cc3)nc(NCc3ccccc3)nc12 ?
inactive

Same read-out for CC(C)(O)c1cccc(F)c1 ?
active

Same read-out for O=C1N/C(=N/O)S/C1=C/c1cn(-c2ccccc2)nc1-c1ccccc1 ?
inactive

Same read-out for COc1cc(/C=C/C(=O)c2cccc(-n3cc(-c4ccccc4)[nH]c3=O)c2)cc(OC)c1OC ?
active

Same read-out for COc1ccc(C2CC(c3ccccc3)=NN2c2nc(C)c(C(C)=O)s2)cc1 (stereo not given) ?
inactive

Same read-out for O=C1CSC(c2ccccc2)N1c1ccccc1 (stereo not given) ?
inactive

Same read-out for Clc1ccc(-c2cn(-c3ccccc3)c(-c3ccccc3)n2)cc1 ?
active

Same read-out for CN(C)c1ccc(/C=C2\C=C(c3ccccc3)N(CCc3ccccc3)C2=O)cc1 ?
inactive

Same read-out for O=C(C[C@@]1(O)C(=O)Nc2c(Cl)ccc(Cl)c21)c1ccc(C2CC2)cc1 ?
inactive

----------
System: LOX IMVI melanoma
protocol_text: NCI-60 one-dose screen, 48 h (100 = growth as untreated, 0 = no growth, -100 = all killed)
reported_conditions: 10 µM unless noted
This is part of a sample that, as a whole, favours compounds with a hit. Of some 83,000 tested, about 20% had one in any assay.
property_name: growth (%)
Entry rule: numbers only, all in %.

Fill in: growth of Nc1ccc(-c2cc3c(Nc4ccc(OCc5cccc(F)c5)c(Cl)c4)ncnc3s2)cc1 is ___
24.5

Same read-out for C[C@H]1[C@H](C)CC[C@]2(C(=O)N3CCN(C)CC3)CC[C@]3(C)C(=CC[C@@H]4[C@@]5(C)C/C(=C/c6cccnc6)C(=O)C(C)(C)[C@@H]5CC[C@]43C)[C@H]12 ?
-97.1

Same read-out for Cc1ccc(NSc2ccccc2[N+](=O)[O-])cc1 ?
35

Same read-out for C/C(Cc1ccc(Cl)cc1)=C(/c1ccc(Cl)cc1)c1ccc(OCCN(C)C)cc1 ?
-88

----------
Would you kindly list growth for each of these compounds?
Test system: NCI/ADR-RES ovarian
protocol_text: NCI-60 one-dose screen, 48 h (100 = growth as untreated, 0 = no growth, -100 = all killed)
reported_conditions: 10 µM unless noted
This is part of a sample that, as a whole, favours compounds with a hit. Of some 83,000 tested, about 20% had one in any assay.
Entry rule: numbers only, all in %.

// map Cc1cc(N(CCCNc2ccnc3cc(Cl)ccc23)Cc2ccccn2)nc(N2CCOCC2)n1 to recorded growth (system: NCI/ADR-RES ovarian)
88.6

Same read-out for Cc1nc(Nc2ccc(NC(=S)Nc3ccccc3)cc2)nc2nc(SCc3ccccc3)[nH]c(=O)c12 ?
110

Same read-out for COc1ccc(-c2cncnc2N)cc1OC ?
105

Same read-out for O=C(/C=C/C12c3ccccc3C(c3ccccc31)C1C(=O)N(c3ccccc3)C(=O)C12)c1ccc(Cl)cc1 (stereo not given) ?
18.1

Same read-out for CNC1(C#N)CCN(Cc2ccccc2)CC1 ?
103
